Source listed as paper PMC9367601.

Can you tell me IC50 for the items I'm about to list?
# Measurement Target: UniProt P00533
# Measurement Description: PathHunter cell-based EGFR dimerization assay, dose-response
Express your answer in µM, writing the number without its unit.

## Task Entry O=C1Nc2cc(Cl)c(F)cc2C1=Nc1cccc(C(F)(F)F)c1 has what IC50?
## Result 27.7

## Task And the next one, O=C1Nc2ccc(Br)cc2C1=Nc1cccc(C(F)(F)F)c1 ?
## Result 38.8

###

Can you tell me inhibition at 10 µM for the items I'm about to list?
# Measurement Target: Epidermal Growth Factor Receptor (EGFR), extracellular domain (EGFR-ECD) (Homo sapiens, UniProt P00533)
# Construct: full-length EGFR in DiscoverX PathHunter enzyme-complementation cells, EGF-stimulated
# Sequence (P00533 25-1210): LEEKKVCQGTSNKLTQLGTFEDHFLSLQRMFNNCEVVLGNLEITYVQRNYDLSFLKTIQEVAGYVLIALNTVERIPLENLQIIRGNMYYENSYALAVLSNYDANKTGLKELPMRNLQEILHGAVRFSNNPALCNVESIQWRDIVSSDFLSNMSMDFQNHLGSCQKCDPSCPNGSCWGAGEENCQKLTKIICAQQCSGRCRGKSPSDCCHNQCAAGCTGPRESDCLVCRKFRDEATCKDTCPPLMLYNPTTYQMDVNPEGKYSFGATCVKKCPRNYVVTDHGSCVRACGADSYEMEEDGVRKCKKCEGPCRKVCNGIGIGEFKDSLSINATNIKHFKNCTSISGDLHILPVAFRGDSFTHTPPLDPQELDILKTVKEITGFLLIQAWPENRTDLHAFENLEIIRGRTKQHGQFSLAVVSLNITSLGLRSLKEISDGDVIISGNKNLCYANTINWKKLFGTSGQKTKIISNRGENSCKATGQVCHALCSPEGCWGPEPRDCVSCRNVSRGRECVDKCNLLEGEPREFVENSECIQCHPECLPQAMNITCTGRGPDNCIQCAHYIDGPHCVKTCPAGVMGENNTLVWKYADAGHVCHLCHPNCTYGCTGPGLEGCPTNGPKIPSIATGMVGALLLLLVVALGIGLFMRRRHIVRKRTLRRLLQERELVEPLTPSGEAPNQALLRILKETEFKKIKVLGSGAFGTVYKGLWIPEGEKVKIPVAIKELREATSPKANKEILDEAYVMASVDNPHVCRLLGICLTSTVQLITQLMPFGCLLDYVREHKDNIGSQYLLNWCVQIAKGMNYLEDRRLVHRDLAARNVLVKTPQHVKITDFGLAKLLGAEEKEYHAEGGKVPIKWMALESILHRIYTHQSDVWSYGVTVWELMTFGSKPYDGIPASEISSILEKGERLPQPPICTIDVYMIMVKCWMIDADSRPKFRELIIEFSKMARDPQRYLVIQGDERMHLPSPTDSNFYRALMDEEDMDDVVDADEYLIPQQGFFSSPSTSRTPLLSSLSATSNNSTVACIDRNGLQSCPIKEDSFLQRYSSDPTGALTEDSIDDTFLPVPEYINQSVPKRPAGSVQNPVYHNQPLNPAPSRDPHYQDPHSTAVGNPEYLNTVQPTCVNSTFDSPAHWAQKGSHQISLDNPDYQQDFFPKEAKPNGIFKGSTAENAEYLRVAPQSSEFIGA
# Measurement Description: cell-based
# Set-up: DiscoverX PathHunter EGFR dimerization/activation assay, chemiluminescence
Express your answer in %, writing the number without its unit.

## Task Entry O=C(NC(=O)c1ccccc1[N+](=O)[O-])Nc1cccc(Oc2ncc(Cl)cn2)c1 [DSF063] has what inhibition at 10 µM?
## Result 0

## Task And the next one, COCCOc1ccc2c(C)c(CC(=O)Nc3ccc(C(=O)O)cc3)c(=O)oc2c1 [DSF046] ?
## Result 0

## Task And the next one, O=C(O)c1ccc(-c2ccc(-c3ccccc3)cc2O)cc1 [DSF029] ?
## Result 1

## Task And the next one, Cc1ccc(NC(=O)Nc2ccc(Nc3cc(-c4ccccc4)ncn3)cc2)cc1 [DSF056] ?
## Result 0

## Task And the next one, Cc1nc(Cl)cc(Nc2ncc(C(=O)O)s2)n1 [DSF060] ?
## Result 0

## Task And the next one, O=C(CN1CCOCC1)Nc1ccc(NC(=O)CN2CCOCC2)c2c1C(=O)c1c(O)ccc(O)c1C2=O [DSF020] ?
## Result 33

## Task And the next one, Cc1c(CCC(=O)Nc2cccc(C(=O)O)c2)c(=O)oc2nc3oc4c(c3cc12)CCCC4 [DSF049] ?
## Result 35

## Task And the next one, COc1ccc2c(C)c(CC(=O)Nc3cccc(C(=O)O)c3)c(=O)oc2c1C [DSF047] ?
## Result 0
